Reported pIC50 values follow for various compounds
# study_system: human full-length MKNK1 (Homo sapiens, UniProt Q9BUB5, T385D)
# Construct: GST (N)
# Sequence (Q9BUB5 1-424 isoform Q9BUB5-2 T344D): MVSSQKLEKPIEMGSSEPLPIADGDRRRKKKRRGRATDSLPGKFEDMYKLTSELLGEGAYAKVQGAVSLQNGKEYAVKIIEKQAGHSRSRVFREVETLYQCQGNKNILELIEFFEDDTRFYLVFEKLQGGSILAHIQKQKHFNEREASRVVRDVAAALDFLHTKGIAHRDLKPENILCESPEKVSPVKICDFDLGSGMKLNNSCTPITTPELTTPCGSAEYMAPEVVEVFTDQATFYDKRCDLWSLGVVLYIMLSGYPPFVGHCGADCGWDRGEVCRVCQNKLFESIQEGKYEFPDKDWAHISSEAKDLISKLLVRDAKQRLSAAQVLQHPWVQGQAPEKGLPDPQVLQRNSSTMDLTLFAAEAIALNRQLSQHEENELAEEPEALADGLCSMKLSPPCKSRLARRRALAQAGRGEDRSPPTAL
# assay_details: MKNK1 kinase high ATP assay (TR-FRET)
# details: high ATP (2 mM final), 15 min preincubation with enzyme, 30 min reaction at 22° C.
Worth noting: pIC50 values are minus log10 of concentrations stated in mol/L.

Example results:
compound: COc1cc2[nH]ncc2cc1Nc1ncnc2[nH]c(S(=O)(=O)c3ccc(C)cc3)cc12 [Example 51]
observed_property: pIC50
recorded_value: 9.00
//
compound: CC(C)Oc1cc2[nH]ncc2cc1Nc1ncnc2[nH]c(Br)cc12 [Example 36]
observed_property: pIC50
recorded_value: 7.47
//
compound: CC(C)Oc1cc2[nH]ncc2cc1Nc1ncnc2[nH]cc(F)c12 [Example 25]
observed_property: pIC50
recorded_value: 8.30
//
compound: COc1cc2[nH]ncc2cc1Nc1ncnc2[nH]cc(C)c12 [Example 39]
observed_property: pIC50
recorded_value: 9.00

According to the records, this compound COc1cc2[nH]ncc2cc1Nc1ncnc2[nH]c(C(=O)N3CCCC3)c(Br)c12 [Example 61] displays pIC50 of 9.00

###

Each record here notes measured pIC50.
# study_system: human full-length MKNK1 (Homo sapiens, UniProt Q9BUB5, T385D)
# Construct: GST (N)
# assay_details: MKNK1 kinase high ATP assay (TR-FRET)
# details: high ATP (2 mM final), 15 min preincubation with enzyme, 30 min reaction at 22° C.
Bear in mind: pIC50 is minus log10 of a mol/L concentration; give just that figure.

Please review the entries below; each comes with its answer.
query_smiles: COc1cc2[nH]ncc2cc1Nc1ncnc2[nH]c(C#CCO)cc12
pIC50: 7.96

query_smiles: Cc1ccc(S(=O)(=O)c2cc3c(Nc4cc5cn[nH]c5cc4OC(C)C)ncnc3[nH]2)cc1
pIC50: 8.70

query_smiles: CC(C)Oc1cc2[nH]ncc2cc1Nc1ncnc2[nH]c(S(C)(=O)=O)cc12
pIC50: 7.43

query_smiles: COc1cc2[nH]ncc2cc1Nc1ncnc2[nH]c(C(=O)N3C[C@@H]4C[C@H]3CO4)c(Br)c12
pIC50: 9.00

query_smiles: COc1cc2[nH]ncc2cc1Nc1ncnc2[nH]cc(C(=O)O)c12
pIC50: 7.14

query_smiles: CC(C)Oc1cc2[nH]ncc2cc1Nc1ncnc2[nH]cc(C(=O)O)c12
pIC50: 6.74

Sample CCc1[nH]c2ncnc(Nc3cc4cn[nH]c4cc3OC(C)C)c2c1C ; pIC50 observed: 8.52

Field pIC50 (entry COc1cc2[nH]ncc2cc1Nc1ncnc2[nH]c(CCCO)cc12 ) reads 7.57

// sample Fc1cc2[nH]ncc2cc1Nc1ncnc2[nH]cc(F)c12 , its pIC50 was 7.54

# compound Cc1cc2[nH]ncc2cc1Nc1ncnc2[nH]cc(C(=O)O)c12 ; its pIC50 = 7.14

pIC50 measured on Cc1c[nH]c2ncnc(Nc3cc4cn[nH]c4cc3OC(C)C)c12 = 9.00

Lab note: measured pIC50 of COc1cc2[nH]ncc2cc1Nc1ncnc2[nH]c(C)cc12 was 7.64

Measured pIC50 of COc1cc2[nH]ncc2cc1Nc1ncnc2[nH]cc(Br)c12 : 9.00

Entry CCc1[nH]c2ncnc(Nc3cc4cn[nH]c4cc3OC)c2c1C ; pIC50 = 8.52

// pIC50 lookup, compound = COc1cc2[nH]ncc2cc1Nc1ncnc2[nH]c(CC(C)C)c(C(C)C)c12 , result: 9.00

The reported pIC50 of the compound CCOc1cc2[nH]ncc2cc1Nc1ncnc2[nH]c(CC)c(C)c12 was 8.52

Please fill in: pIC50 reported for COc1cc2[nH]ncc2cc1Nc1ncnc2[nH]cc(C(=O)N3CCN(C)CC3)c12 = 6.96
